Numbers sourced from PubChem BioAssay (NCI).

- Test system: SR leukemia
- test_method_notes: NCI-60 one-dose screen, 48 h (100 = growth as untreated, 0 = no growth, -100 = all killed)
- reported_conditions: 10 µM unless noted
Compounds without any hit were thinned out: in the full panel of roughly 83,000, 20% have a hit.
recorded_endpoint: growth (%)
Give bare numbers, in %.

For each of the molecules below, state growth.
1. COC(=O)C(N)CSC(c1ccccc1)(c1ccccc1)c1ccccc1 (centres undefined)
2. CCN1CCN(C(=O)[C@]23CCC(C)(C)C[C@@H]2C2=CC[C@@H]4[C@@]5(C)C/C(=C/c6cccnc6)C(=O)C(C)(C)[C@@H]5CC[C@@]4(C)[C@]2(C)CC3)CC1

[7.6, 4.78]

Lab note: each molecule below needs its growth filled in.
1. O=C(NC(Cc1cn(Cc2ccccc2)cn1)C(=O)O)OCC1c2ccccc2-c2ccccc21 (centres undefined)
2. Cc1cc(N(CCCNc2ccnc3cc(Cl)ccc23)Cc2ccco2)nc(N2CCN(C)CC2)n1

1: 85.1; 2: -16.7
